- tgt: T1, wild-type human Ang-2 (hAng-2-WT) (human, UniProt O15123 19-496)
- T1 construct: called full-length wild-type; also called Full-length wild-type human Ang-2
- T1 sequence: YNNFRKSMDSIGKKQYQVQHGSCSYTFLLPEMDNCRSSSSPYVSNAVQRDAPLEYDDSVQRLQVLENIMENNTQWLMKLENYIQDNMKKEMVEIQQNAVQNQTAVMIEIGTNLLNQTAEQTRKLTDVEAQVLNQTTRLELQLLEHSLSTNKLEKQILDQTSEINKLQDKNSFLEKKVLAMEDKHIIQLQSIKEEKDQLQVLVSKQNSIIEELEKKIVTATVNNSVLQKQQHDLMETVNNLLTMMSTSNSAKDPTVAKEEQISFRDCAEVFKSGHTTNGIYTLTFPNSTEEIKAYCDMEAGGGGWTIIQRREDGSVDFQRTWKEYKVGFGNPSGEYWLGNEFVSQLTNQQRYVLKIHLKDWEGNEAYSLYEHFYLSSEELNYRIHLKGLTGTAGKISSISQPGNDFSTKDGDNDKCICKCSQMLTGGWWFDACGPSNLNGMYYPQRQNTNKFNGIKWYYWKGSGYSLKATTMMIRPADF
- assay: SPR, captured Ab

binder	Kd
H1H690P (antibody, V domains shown) VH: EVQLVESGGGLVQPGESLRLSCAASGFTFSSYAMSWVRQGPGKGLEWVSSITGSGDTTYYADSVKGRFTISRDNSKNTLYLHMNSLRAEDTAVYYCAKDFLDYSTYLAFDLWGQGTMVTVSS VL: EIVLTQSPATLSLSPGERATLSCRASQSVSSYLTWYQQKPGQAPRLLSYDASNRATGIPARFSGSGSGTDFTLTISSLEPEDFAVYYCQQRSNWPLTFGGGTKVEIK	0.0124 nM
H2M730N (antibody, V domains shown) VH: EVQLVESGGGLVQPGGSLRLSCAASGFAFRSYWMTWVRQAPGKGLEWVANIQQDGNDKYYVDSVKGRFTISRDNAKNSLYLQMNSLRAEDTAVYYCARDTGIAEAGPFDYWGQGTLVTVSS VL: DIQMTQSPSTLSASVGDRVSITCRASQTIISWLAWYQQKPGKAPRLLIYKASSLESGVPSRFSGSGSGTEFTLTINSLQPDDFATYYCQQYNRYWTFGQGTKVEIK	0.0492 nM
H1M732N (antibody, V domains shown) VH: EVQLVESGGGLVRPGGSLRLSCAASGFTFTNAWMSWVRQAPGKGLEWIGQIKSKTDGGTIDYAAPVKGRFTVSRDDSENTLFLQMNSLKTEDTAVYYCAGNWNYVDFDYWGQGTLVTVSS VL: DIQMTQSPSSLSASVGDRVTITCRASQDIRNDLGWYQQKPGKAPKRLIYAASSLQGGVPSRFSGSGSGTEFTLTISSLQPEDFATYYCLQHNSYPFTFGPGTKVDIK	0.131 nM
H1H750N (antibody, V domains shown) VH: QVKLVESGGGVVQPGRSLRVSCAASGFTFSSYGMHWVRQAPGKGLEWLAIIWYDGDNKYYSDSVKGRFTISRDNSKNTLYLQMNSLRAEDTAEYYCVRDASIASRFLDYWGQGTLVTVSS VL: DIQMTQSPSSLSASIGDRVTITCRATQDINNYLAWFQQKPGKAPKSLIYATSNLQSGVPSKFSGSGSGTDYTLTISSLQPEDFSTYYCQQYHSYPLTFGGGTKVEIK	0.0095 nM
H2M750N (antibody, V domains shown) VH: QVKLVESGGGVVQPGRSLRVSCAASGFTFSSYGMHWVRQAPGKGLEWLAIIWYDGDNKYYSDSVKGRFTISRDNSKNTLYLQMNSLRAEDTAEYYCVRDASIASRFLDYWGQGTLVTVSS VL: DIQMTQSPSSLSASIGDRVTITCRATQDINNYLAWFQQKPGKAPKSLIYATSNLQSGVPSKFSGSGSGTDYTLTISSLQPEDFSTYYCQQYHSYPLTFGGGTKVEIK	0.0408 nM
H1H742N (antibody, V domains shown) VH: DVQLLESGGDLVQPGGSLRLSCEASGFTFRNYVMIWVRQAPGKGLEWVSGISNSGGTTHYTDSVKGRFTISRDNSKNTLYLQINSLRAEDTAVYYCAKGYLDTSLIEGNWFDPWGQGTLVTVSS VL: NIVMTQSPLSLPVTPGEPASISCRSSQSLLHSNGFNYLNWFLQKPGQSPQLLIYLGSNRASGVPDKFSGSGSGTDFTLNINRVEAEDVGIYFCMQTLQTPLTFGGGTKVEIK	0.0449 nM
